- assay.details: Beagle dog PK study 1 (IV and PO, propylene glycol-based formulation)
- Type: in vivo
- test.parameters: beagle, dog, plasma, po, 5 mg/kg, PK study 1, PO 5 mg/kg, 0.25 h, Test Animal 3; read-out: Plasma concentration
- Description: The purpose of this study was to examine the pharmacokinetics of Example 101 in beagle dogs. […] An oral PK study was also undertaken in Lewis rats—see Experimental Method C. Body weight was recoded prior to dosing, and detailed clinical observations were made prior to dosing and throughout the study, as needed. Subsequently, 17.320 mL Vitamin E TPGS was added, and the solution was vortexed and sonicated. Then, 51.960 mL water was added, and solution was then heated. […]
observable: concentration at 0.25 h (ng/mL)
Unit ng/mL implied. Number only.

Field concentration at 0.25 h (entry CNC(=O)c1[nH]c(C(=O)NC2CCC2)cc1O[C@@H](C)c1ccccc1 ) reads 309

Values were extracted from patent US20260000642A1.
